Values were extracted from ChEMBL document CHEMBL5325413.

# Tested on: HCT-116
# Assay Details: Antiproliferative activity against human HCT-116 cells assessed as cell growth inhibition incubated for 72 hrs by MTT assay
# Assay type: functional
Under this convention, yes denotes GI50 strictly below 4 µM and no denotes GI50 at or above 4 µM.

INSERT INTO assay_data (smi, measured_target, assigned_category) VALUES
  ('CN1CCC(NC(=O)c2ccc(N3N=C(c4ccccc4)/C(=N/Nc4ccccc4)C3=O)cc2)CC1', 'HCT-116', 'no'),
  ('N[C@@H]1CCCN(C(=O)c2ccc(N3N=C(c4ccccc4)/C(=N/Nc4ccccc4)C3=O)cc2)C1', 'HCT-116', 'yes'),
  ('O=C(c1ccc(N2N=C(c3ccccc3)/C(=N/Nc3ccccc3)C2=O)cc1)N1CCC2(CC1)CNC2', 'HCT-116', 'no'),
  ('O=C(c1ccc(N2N=C(c3ccccc3)/C(=N\Nc3ccccc3)C2=O)cc1)N1CCC(N2CCCCC2)CC1', 'HCT-116', 'no'),
  ('O=C(c1ccc(N2N=C(c3ccccc3)/C(=N/Nc3ccccc3)C2=O)cc1)N1CCCCC1', 'HCT-116', 'no');

Please state whether GI50 is below 4 µM for `CN(C)C(=O)c1ccc(N2N=C(c3ccccc3)/C(=N/Nc3ccccc3)C2=O)cc1`
no

Please state whether GI50 is below 4 µM for `CC(C)Oc1cc(F)ccc1N/N=C1\C(=O)N(c2ccc(C(=O)N3CCC(N(C)C)CC3)cc2)N=C1c1ccccc1`
yes

Please state whether GI50 is below 4 µM for `CN(C)C1CCN(C(=O)c2cccc(N3N=C(c4ccccc4)/C(=N/Nc4ccccc4)C3=O)c2)CC1`
no

Please state whether GI50 is below 4 µM for `O=C(c1ccccc1)N1CCC(C2=NN(c3nc(-c4ccccc4)cs3)C(=O)/C2=N\Nc2nccs2)CC1`
no

Please state whether GI50 is below 4 µM for `CN(C)CCCNC(=O)c1ccc(N2N=C(c3ccccc3)/C(=N/Nc3ccccc3)C2=O)cc1`
yes

Please state whether GI50 is below 4 µM for `O=C1/C(=N\Nc2ccccc2)C(c2ccccc2)=NN1c1ccccc1`
no

Please state whether GI50 is below 4 µM for `CN(C)C1CCN(C(=O)c2ccc(N3N=C(c4ccccc4)/C(=N/Nc4cccnc4)C3=O)cc2)CC1`
yes
